Listing of entries alongside the reported pIC50.
biological target: NLRP3 inflammasome (Homo sapiens); construct: endogenous in cells; assay: THP-1 IL-1β production inhibition test; conditions: PMA-treated THP-1 cells, LPS 50 ng/mL + ATP 5 mM, 2 hours, IL-1β in supernatant by ELISA
Sequence (Q96P20 whole entry): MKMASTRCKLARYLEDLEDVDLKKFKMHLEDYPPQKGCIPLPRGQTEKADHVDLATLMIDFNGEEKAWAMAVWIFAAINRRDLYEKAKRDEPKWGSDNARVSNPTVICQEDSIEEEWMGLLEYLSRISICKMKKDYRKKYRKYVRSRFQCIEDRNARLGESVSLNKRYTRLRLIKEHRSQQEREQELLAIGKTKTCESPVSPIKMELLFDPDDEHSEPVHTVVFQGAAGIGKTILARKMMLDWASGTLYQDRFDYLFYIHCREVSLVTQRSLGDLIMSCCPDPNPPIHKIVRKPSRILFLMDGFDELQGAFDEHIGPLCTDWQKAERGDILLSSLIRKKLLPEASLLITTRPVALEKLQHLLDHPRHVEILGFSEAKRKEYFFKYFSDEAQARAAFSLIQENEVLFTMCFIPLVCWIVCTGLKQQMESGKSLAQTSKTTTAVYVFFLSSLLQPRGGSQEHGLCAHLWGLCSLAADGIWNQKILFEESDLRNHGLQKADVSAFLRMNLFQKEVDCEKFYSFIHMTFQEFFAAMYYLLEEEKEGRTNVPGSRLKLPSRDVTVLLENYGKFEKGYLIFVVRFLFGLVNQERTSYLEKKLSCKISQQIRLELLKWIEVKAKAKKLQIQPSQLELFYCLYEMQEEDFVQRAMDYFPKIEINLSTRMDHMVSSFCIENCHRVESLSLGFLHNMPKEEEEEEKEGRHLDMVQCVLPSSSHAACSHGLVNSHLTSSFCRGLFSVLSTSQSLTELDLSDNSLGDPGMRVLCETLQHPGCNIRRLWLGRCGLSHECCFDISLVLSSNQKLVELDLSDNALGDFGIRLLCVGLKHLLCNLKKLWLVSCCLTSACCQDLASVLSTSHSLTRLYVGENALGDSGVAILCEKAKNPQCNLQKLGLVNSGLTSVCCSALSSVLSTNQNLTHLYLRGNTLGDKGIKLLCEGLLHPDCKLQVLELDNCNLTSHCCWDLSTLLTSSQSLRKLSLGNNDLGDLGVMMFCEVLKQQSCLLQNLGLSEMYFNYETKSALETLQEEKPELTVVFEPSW
pIC50: −log10 of the molar value. Where a name gives a salt, the structure may show the parent alone.

{"columns": ["COMPOUND", "TARGET DESC", "pIC50"],
 "data": [
  ["Oc1cc(C(F)(F)F)ccc1-c1nnc(N[C@@H]2CCCC[C@H]2O)c2c1CCOC2 [Example 133, monohydrochloride]", "NLRP3 inflammasome (Homo sapiens)", 8.89],
  ["C[C@@H](O)CNc1nnc(-c2ccc(C(F)(F)F)cc2O)c2cnccc12", "NLRP3 inflammasome (Homo sapiens)", 7.70],
  ["CC(=O)N[C@@H]1CCCC[C@H]1Nc1nnc(-c2ccc(C(F)(F)F)cc2O)c2ccccc12", "NLRP3 inflammasome (Homo sapiens)", 7.77],
  ["C[C@@]1(O)CCCC[C@H]1Nc1nnc(-c2ccc(C(F)(F)F)cc2O)c2c1CCCC2", "NLRP3 inflammasome (Homo sapiens)", 7.82],
  ["Oc1cc(Cl)ccc1-c1nnc(N[C@@H]2CCOC[C@H]2O)c2c1CCCC2", "NLRP3 inflammasome (Homo sapiens)", 7.72],
  ["C[C@]1(O)C[C@@H](Nc2nnc(-c3ccc(C(F)(F)F)cc3O)c3c2CCOC3)C1", "NLRP3 inflammasome (Homo sapiens)", 7.44],
  ["CN1CCC[C@@H](Nc2nnc(-c3ccc(C4CC4)cc3O)c3c2COCC3)C1", "NLRP3 inflammasome (Homo sapiens)", 8.89],
  ["Cc1ccc(-c2nnc(N[C@@H]3CCOC[C@H]3O)c3c2CCCC3)c(O)c1", "NLRP3 inflammasome (Homo sapiens)", 7.49]
]}
